ASSAYED_SYSTEM: Delta-type opioid receptor (Homo sapiens)
Sequence (P41143 whole entry): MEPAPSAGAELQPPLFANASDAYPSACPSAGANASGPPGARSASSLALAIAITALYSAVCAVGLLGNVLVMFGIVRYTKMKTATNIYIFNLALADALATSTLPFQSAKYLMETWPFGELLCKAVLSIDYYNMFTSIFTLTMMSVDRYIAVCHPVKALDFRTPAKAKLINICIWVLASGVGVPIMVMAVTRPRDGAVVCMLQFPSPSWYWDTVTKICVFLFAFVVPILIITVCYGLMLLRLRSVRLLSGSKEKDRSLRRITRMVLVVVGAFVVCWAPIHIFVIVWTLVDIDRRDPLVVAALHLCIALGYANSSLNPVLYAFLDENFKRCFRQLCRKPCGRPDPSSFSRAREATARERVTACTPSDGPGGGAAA
METHOD_SUMMARY: Agonist activity at human recombinant delta opioid receptor expressed in CHO cell membranes after 60 mins by [35S]GTPgammaS binding assay relative to DPDPE
Type: functional
Output T for records whose Activity is lower than 70%, F for records at or above 70%.

Challenge: For this compound, is Activity lower than 70%? CN1C(=O)[C@@H](CCO)CC2=C1[C@@H]1Oc3c(O)ccc4c3[C@@]13CCN(C)[C@H](C4)[C@]3(O)C2
Response given: F

Challenge: Query CN1C(=O)[C@H](CCO)CC2=C1[C@@H]1Oc3c(O)ccc4c3[C@@]13CCN(C)[C@H](C4)[C@]3(O)C2 next
Response given: T

Challenge: Follow-up item: CN1C(=O)CCC2=C1[C@@H]1Oc3c(O)ccc4c3[C@@]13CCN(C)[C@H](C4)[C@]3(O)C2
Response given: T

Challenge: What about CCOC(=O)Cc1c2c(n(Cc3ccccc3)c1O)[C@@H]1Oc3c(O)ccc4c3[C@@]13CCN(C)[C@H](C4)[C@]3(O)C2 ?
Response given: F

Challenge: Now try CN1CC[C@]23c4c5ccc(O)c4O[C@H]2C2=C(C[C@@H](CCO)C(=O)N2Cc2ccccc2)C[C@@]3(O)[C@H]1C5 .
Response given: F

---

ASSAYED_SYSTEM: Kappa-type opioid receptor (Homo sapiens, UniProt P41145)
Sequence (P41145 whole entry): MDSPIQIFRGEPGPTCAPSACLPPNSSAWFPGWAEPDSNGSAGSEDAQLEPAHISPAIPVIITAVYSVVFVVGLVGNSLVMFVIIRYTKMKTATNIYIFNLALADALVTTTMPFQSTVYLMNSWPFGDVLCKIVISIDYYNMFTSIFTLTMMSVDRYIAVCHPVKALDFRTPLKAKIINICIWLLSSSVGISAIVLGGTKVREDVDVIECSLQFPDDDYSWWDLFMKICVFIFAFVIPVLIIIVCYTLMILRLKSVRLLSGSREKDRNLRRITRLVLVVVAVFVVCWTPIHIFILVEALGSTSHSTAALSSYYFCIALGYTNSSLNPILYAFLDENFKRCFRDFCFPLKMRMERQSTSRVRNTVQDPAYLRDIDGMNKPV
METHOD_SUMMARY: Agonist activity at human recombinant kappa opioid receptor expressed in CHO cell membranes at 10 uM after 60 mins by [35S]GTPgammaS binding assay relative to U69593
Type: functional
I'd appreciate it if you marked entries Condition met when Smax is lower than -10% and Condition not met when it is not.

Solved entries (count: 4):
SUBSTANCE_SMILES	CLASS_ASSIGNMENT
O=C1CCC2=C([C@@H]3Oc4c(O)ccc5c4[C@@]34CCN(CC3CC3)[C@H](C5)[C@]4(O)C2)N1Cc1ccccc1	Condition met
C=CCN1CC[C@]23c4c5ccc(O)c4O[C@H]2C2=C(CCC(=O)N2CCc2ccccc2)C[C@@]3(O)[C@H]1C5	Condition met
O=C1CCC2=C([C@@H]3Oc4c(O)ccc5c4[C@@]34CCN(CC3CC3)[C@H](C5)[C@]4(O)C2)N1Cc1cccc(F)c1	Condition not met
O=C1CCC2=C([C@@H]3Oc4c(O)ccc5c4[C@@]34CCN(CC3CC3)[C@H](C5)[C@]4(O)C2)N1CC1CCCCC1	Condition not met

Challenge: Threshold test, Smax < -10%: O=C1CCC2=C([C@@H]3Oc4c(O)ccc5c4[C@@]34CCN(CC3CC3)[C@H](C5)[C@]4(O)C2)N1Cc1cccc(Cl)c1
Response given: Condition met

---

Documented pKi across a set of compounds
ASSAYED_SYSTEM: Mu-type opioid receptor (Homo sapiens)
Sequence (P35372 whole entry): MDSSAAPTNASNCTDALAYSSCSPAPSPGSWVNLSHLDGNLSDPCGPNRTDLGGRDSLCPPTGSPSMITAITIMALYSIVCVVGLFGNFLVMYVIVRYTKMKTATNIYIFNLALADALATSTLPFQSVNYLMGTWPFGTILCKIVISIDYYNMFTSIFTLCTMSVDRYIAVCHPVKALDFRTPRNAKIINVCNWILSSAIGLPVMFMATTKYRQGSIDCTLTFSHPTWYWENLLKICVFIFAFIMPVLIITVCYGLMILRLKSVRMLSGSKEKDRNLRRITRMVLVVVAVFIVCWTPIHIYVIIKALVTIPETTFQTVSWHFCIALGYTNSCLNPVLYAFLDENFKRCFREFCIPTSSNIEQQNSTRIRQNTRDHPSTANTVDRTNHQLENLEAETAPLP
METHOD_SUMMARY: Displacement of [3H]DAMGO from human recombinant mu opioid receptor expressed in CHO cell membranes after 60 mins by scintillation counting method
Remember the convention: pKi equals -log10 of concentration in molar.

SUBSTANCE_SMILES	pKi
CN1C(=O)[C@H](CCO)CC2=C1[C@@H]1Oc3c(O)ccc4c3[C@@]13CCN(C)[C@H](C4)[C@]3(O)C2	8.63
O=C1CCC2=C([C@@H]3Oc4c(O)ccc5c4[C@@]34CCN(CC3CC3)[C@H](C5)[C@]4(O)C2)N1Cc1ccccc1	9.74
CN1CC[C@]23c4c5ccc(O)c4O[C@H]2C2=C(C[C@H](CCO)C(=O)N2Cc2ccccc2)C[C@@]3(O)[C@H]1C5	8.52
CN1CC[C@]23c4c5ccc(O)c4O[C@H]2C2=C(CCC(=O)N2Cc2ccccc2)C[C@@]3(O)[C@H]1C5	9.54
CN1CC[C@]23c4c5ccc(O)c4O[C@H]2C2=C(C[C@@H](CCO)C(=O)N2Cc2ccccc2)C[C@@]3(O)[C@H]1C5	8.69

Challenge: Please report the recorded pKi for O=C1CCC2=C([C@@H]3Oc4c(O)ccc5c4[C@@]34CCN(CC3CC3)[C@H](C5)[C@]4(O)C2)N1CC1CCCCC1 .
Response given: 9.96

Challenge: # repeat for C[C@@H]1CC2=C([C@@H]3Oc4c(O)ccc5c4[C@@]34CCN(CC3CC3)[C@H](C5)[C@]4(O)C2)N(Cc2ccccc2)C1=O
Response given: 9.25
